Target: Muscarinic acetylcholine receptor M1 (Homo sapiens) (UniProt P11229)
Sequence (P11229 whole entry): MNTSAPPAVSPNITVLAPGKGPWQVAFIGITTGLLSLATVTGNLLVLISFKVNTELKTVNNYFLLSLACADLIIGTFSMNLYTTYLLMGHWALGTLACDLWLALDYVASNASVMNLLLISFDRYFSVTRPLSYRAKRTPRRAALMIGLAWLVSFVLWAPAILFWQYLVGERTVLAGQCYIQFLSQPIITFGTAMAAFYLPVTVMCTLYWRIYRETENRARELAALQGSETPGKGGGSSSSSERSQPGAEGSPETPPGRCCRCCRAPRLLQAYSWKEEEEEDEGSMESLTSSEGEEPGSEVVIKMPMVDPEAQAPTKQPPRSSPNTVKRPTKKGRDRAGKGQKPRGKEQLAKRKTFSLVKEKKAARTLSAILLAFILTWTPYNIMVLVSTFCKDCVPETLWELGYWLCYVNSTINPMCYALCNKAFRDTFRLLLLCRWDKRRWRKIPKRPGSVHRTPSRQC
Experiment: Agonist activity at human cloned muscarinic M1 receptor expressed in CHO cells assessed as effect on calcium mobilization by FLIPR
Assay type: functional, cell-based
Activity calls are given as the source filed them. The calls are words filed in the database; no cut-off is given here.
Reported endpoint: Activity

// worked examples, Activity included
{"Query smiles": "CN1[C@@H]2CC[C@H]1C[C@@H](CC(CNC(N)=O)(c1ccccc1)c1ccccc1)C2", "Assay target": "Muscarinic acetylcholine receptor M1 (Homo sapiens) (UniProt P11229)", "Reported endpoint": "Activity", "Result": "inactive"}
{"Query smiles": "C[N+]1(C)[C@@H]2CC[C@H]1C[C@@H](CC(C#N)(c1ccccc1)c1ccccc1)C2.[Br-]", "Assay target": "Muscarinic acetylcholine receptor M1 (Homo sapiens) (UniProt P11229)", "Reported endpoint": "Activity", "Result": "inactive"}
{"Query smiles": "CN1[C@@H]2CC[C@H]1C[C@@H](CC(CNS(C)(=O)=O)(c1ccccc1)c1ccccc1)C2", "Assay target": "Muscarinic acetylcholine receptor M1 (Homo sapiens) (UniProt P11229)", "Reported endpoint": "Activity", "Result": "inactive"}
{"Query smiles": "C[N+]1(C)[C@@H]2CC[C@H]1C[C@@H](CC(CO)(c1ccccc1)c1ccccc1)C2.[Br-]", "Assay target": "Muscarinic acetylcholine receptor M1 (Homo sapiens) (UniProt P11229)", "Reported endpoint": "Activity", "Result": "inactive"}
{"Query smiles": "CN1[C@@H]2CC[C@H]1C[C@@H](CC(C#N)(c1ccccc1)c1ccccc1)C2", "Assay target": "Muscarinic acetylcholine receptor M1 (Homo sapiens) (UniProt P11229)", "Reported endpoint": "Activity", "Result": "inactive"}
{"Query smiles": "CCNC(=O)NCC(C[C@H]1C[C@H]2CC[C@@H](C1)N2C)(c1ccccc1)c1ccccc1", "Assay target": "Muscarinic acetylcholine receptor M1 (Homo sapiens) (UniProt P11229)", "Reported endpoint": "Activity", "Result": "inactive"}

[ask] What value of Activity on Muscarinic acetylcholine receptor M1 (Homo sapiens) (UniProt P11229) does `CN1[C@@H]2CC[C@H]1C[C@@H](CC(C(=O)O)(c1ccccc1)c1ccccc1)C2` have?
[reply] inactive

[ask] Query the reported Activity for Muscarinic acetylcholine receptor M1 (Homo sapiens) (UniProt P11229); item: `CN1[C@@H]2CC[C@H]1C[C@@H](CC(CNS(=O)(=O)c1ccccc1)(c1ccccc1)c1ccccc1)C2`
[reply] inactive
